Tested on: GP5d (Colorectal Carcinoma)
assay info: Bliss excess, mean over the matrix (fraction); higher = more synergy;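 further: after 72 h of two-drug dosing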
Values of Bliss excess greater than or equal to -0.01 map to y; values below map to n.

Here are 6 molecules together with their reported answers.
{"molecule": "Cc1c2c(nn1C)CSCc1cc(n(C)n1)CSc1cc(c3ccccc3c1)OCCCc1c(C(=O)O)n(C)c3c-2c(Cl)ccc13 [AZD5991] + C[C@@H]1COCCN1C2=NC(=NC(=C2)C3(CC3)[S@](=N)(=O)C)C4=C5C=CNC5=NC=C4 [AZD6738] (first compound max 1 µM, 7x7, partner max 10 µM)", "group": "y"}
{"molecule": "CC1(C)CCC(CN2CCN(c3ccc(C(=O)NS(=O)(=O)c4ccc(NCC5CCOCC5)c([N+](=O)[O-])c4)c(Oc4cnc5[nH]ccc5c4)c3)CC2)=C(c2ccc(Cl)cc2)C1 [Venetoclax] + Cn1cnc2c(F)c(Nc3ccc(Br)cc3Cl)c(C(=O)NOCCO)cc21 [Selumetinib] (first compound max 1 µM, 7x7, partner max 3 µM)", "group": "y"}
{"molecule": "C[C@@H](c1ccc2nccn2c1)n1nnc2ncc(-c3cnn(C)c3)nc21 [Savolitinib] + Cc1c2c(nn1C)CSCc1cc(n(C)n1)CSc1cc(c3ccccc3c1)OCCCc1c(C(=O)O)n(C)c3c-2c(Cl)ccc13 [AZD5991] (first compound max 1 µM, 7x7, partner max 1 µM)", "group": "n"}
{"molecule": "Cc1cc2ncnn2cc1Nc1ncc2c(n1)n(C1CCOCC1)c(=O)n2C [AZD7648] + CCN(CCO)CCCOc1ccc2c(Nc3cc(CC(=O)Nc4cccc(F)c4)[nH]n3)ncnc2c1 [AZD2811] (first compound max 10 µM, 7x7, partner max 1 µM)", "group": "y"}
{"molecule": "CC(=O)c1c(C)c2cnc(Nc3ccc(N4CCNCC4)cn3)nc2n(C2CCCC2)c1=O [Palbociclib] + CC1(C)CCC(CN2CCN(c3ccc(C(=O)NS(=O)(=O)c4ccc(NCC5CCOCC5)c([N+](=O)[O-])c4)c(Oc4cnc5[nH]ccc5c4)c3)CC2)=C(c2ccc(Cl)cc2)C1 [Venetoclax] (first compound max 10 µM, 7x7, partner max 1 µM)", "group": "n"}
{"molecule": "Cc1c2c(nn1C)CSCc1cc(n(C)n1)CSc1cc(c3ccccc3c1)OCCCc1c(C(=O)O)n(C)c3c-2c(Cl)ccc13 [AZD5991] + CC1(C)CCC(CN2CCN(c3ccc(C(=O)NS(=O)(=O)c4ccc(NCC5CCOCC5)c([N+](=O)[O-])c4)c(Oc4cnc5[nH]ccc5c4)c3)CC2)=C(c2ccc(Cl)cc2)C1 [Venetoclax] (first compound max 1 µM, 7x7, partner max 1 µM)", "group": "n"}

Then there is this molecule:
Check this molecule for Bliss excess at or above -0.01: CC1(C)CCC(CN2CCN(c3ccc(C(=O)NS(=O)(=O)c4ccc(NCC5CCOCC5)c([N+](=O)[O-])c4)c(Oc4cnc5[nH]ccc5c4)c3)CC2)=C(c2ccc(Cl)cc2)C1 [Venetoclax] + C1CN(CCC1(C(=O)N[C@@H](CCO)C2=CC=C(C=C2)Cl)N)C3=NC=NC4=C3C=CN4 [Capivasertib] (first compound max 1 µM, 7x7, partner max 3 µM)
n

* * *

System: FADU (Head and Neck Carcinoma)
assay info: Bliss excess, mean over the matrix (fraction); higher = more synergy
test readout: Bliss excess
# output: bare number, no unit

{"molecule": "Cc1c2c(nn1C)CSCc1cc(n(C)n1)CSc1cc(c3ccccc3c1)OCCCc1c(C(=O)O)n(C)c3c-2c(Cl)ccc13 [AZD5991] + CC1(C)CCC(CN2CCN(c3ccc(C(=O)NS(=O)(=O)c4ccc(NCC5CCOCC5)c([N+](=O)[O-])c4)c(Oc4cnc5[nH]ccc5c4)c3)CC2)=C(c2ccc(Cl)cc2)C1 [Venetoclax] (first compound max 1 µM, 7x7, partner max 1 µM)", "Bliss excess": -0.0231}
{"molecule": "CC(=O)Nc1cccc(-n2c(=O)n(C3CC3)c(=O)c3c(Nc4ccc(I)cc4F)n(C)c(=O)c(C)c32)c1 [Trametinib] + Cc1nc(-c2cn3c(n2)-c2ccc(-c4cnn(C(C)(C)C(N)=O)c4)cc2OCC3)n(C(C)C)n1 [Taselisib] (first compound max 1 µM, 7x7, partner max 10 µM)", "Bliss excess": 0.213}
{"molecule": "COc1cccc(OCCCN)c1-c1cc(Nc2cnc(C#N)cn2)n[nH]1 [Prexasertib] + C=CCn1c(=O)c2cnc(Nc3ccc(N4CCN(C)CC4)cc3)nc2n1-c1cccc(C(C)(C)O)n1 [AZD1775] (first compound max 1 µM, partner max 1 µM)", "Bliss excess": 0.084}
{"molecule": "CN(CCO)CC[C@H](CSc1ccccc1)Nc1ccc(S(=O)(=O)NC(=O)c2ccc(N3CCC([C@@H](O)c4ccccc4-c4ccc(Cl)cc4)CC3)cc2)cc1S(=O)(=O)C(F)(F)F [AZD4320] + C[C@@H](Nc1cc(F)cc(F)c1)c1cc(C(=O)N(C)C)cc2c(=O)cc(N3CCOCC3)oc12 [AZD8186] (first compound max 1 µM, 7x7, partner max 3 µM)", "Bliss excess": 0.041}

Specify Bliss excess for COc1cccc(OCCCN)c1-c1cc(Nc2cnc(C#N)cn2)n[nH]1 [Prexasertib] + CCc1c2c(nc3ccc(O)cc13)-c1cc3c(c(=O)n1C2)COC(=O)[C@]3(O)CC [SN-38] (first compound max 1 µM, 7x7, partner max 0.3 µM) and stop.
-0.0233
